- system.under.test: CXCR7 (Homo sapiens, UniProt P25106)
- Sequence (P25106 whole entry): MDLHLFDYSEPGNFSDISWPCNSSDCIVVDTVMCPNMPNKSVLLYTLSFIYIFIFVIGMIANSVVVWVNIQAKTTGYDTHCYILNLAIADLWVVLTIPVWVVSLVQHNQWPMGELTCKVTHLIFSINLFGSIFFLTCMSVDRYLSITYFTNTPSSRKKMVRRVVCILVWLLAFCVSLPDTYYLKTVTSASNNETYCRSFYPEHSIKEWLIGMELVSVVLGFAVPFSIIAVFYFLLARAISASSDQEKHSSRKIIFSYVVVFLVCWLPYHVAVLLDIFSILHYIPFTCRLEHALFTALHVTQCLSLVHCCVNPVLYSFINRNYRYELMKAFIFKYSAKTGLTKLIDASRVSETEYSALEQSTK
- Sequence (P32121 whole entry partner): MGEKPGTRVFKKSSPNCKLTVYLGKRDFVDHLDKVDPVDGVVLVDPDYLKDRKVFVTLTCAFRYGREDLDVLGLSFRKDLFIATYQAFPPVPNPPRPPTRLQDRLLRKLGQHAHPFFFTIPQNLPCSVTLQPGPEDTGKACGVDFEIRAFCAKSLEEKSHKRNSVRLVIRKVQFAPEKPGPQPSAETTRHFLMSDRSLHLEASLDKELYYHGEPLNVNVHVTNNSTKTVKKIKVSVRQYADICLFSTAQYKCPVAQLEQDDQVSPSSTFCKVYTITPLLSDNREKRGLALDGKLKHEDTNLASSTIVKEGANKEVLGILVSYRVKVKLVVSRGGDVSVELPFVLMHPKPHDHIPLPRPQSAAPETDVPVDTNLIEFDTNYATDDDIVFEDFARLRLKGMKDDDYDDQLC
- experiment.description: PathHunter CHO-K1 CXCR7 b-arrestin recruitment assay (CXCR7 agonistic activity)
- condition.label: PathHunter CHO-K1 CXCR7 b-arrestin cell line
Kindly supply the reported pEC50 values for the records listed here.
Answers are plain numbers, as −log10 of the molar value.

Solved entries:
[[record]]
compound = "CC(C)COC(=O)N1CCc2c(cccc2NCC(=O)N(CCN(C)C)Cc2ccccc2)C1 [compound 122]"
experimental_value = 6.47

[[record]]
compound = "O=C(CNc1cccc2c1CCN(CC1CC1)C2)N(Cc1ccccc1C(F)(F)F)CC1CCNC1 (racemic) [compound 441]"
experimental_value = 8.30

[[record]]
compound = "O=C(CNc1cccc2c1CCN(CC1CC1)C2)N(CCc1ccc(F)cc1)Cc1ccccc1 [Example 75]"
experimental_value = 6.86


For every listed record, write down its pEC50.
1. CN(C)CCN(Cc1ccccc1)C(=O)CNc1cccc2c1CCN(C(=O)OCc1ccccc1)C2 [compound 131]
2. CCN1CCc2cccc(NCC(=O)N(CCN(C)C)Cc3ccccc3C(F)(F)F)c2C1 [compound 555]
3. CN(CCN(Cc1ccccc1C(F)(F)F)C(=O)CNc1cccc2c1CCN(CC1CC1)C2)C(=O)OC(C)(C)C [Example 83]
4. C/C(=C\c1ccccc1)CN(CCN(C)C)C(=O)CNc1cccc2c1CCN(CC1CC1)C2 [Example 45]
5. CCCN1CCc2c(cccc2NCC(=O)N(CCN(C)C)Cc2ccccc2C(F)(F)F)C1 [Example 573]

Reply:
1. 6.35
2. 8.22
3. 7.06
4. 8.10
5. 8.52

====

- system.under.test: CXCR7 (Homo sapiens, UniProt P25106)
- experiment.description: PathHunter CHO-K1 CXCR7 b-arrestin recruitment assay (CXCR7 agonistic activity)
- condition.label: PathHunter CHO-K1 CXCR7 b-arrestin cell line
# note: boundary value 0.3 µM maps to not fulfilled; EC50 below it maps to fulfilled

Example results:
[[record]]
line_notation = "O=C(CNc1cccc2c1CCN(CC1CC1)C2)N(CCN1CCNC1=O)Cc1ccccc1C(F)(F)F"
system_under_test = "CXCR7 (Homo sapiens, UniProt P25106)"
answer_label = "fulfilled"

[[record]]
line_notation = "CC(C)CCN(Cc1ccccc1)C(=O)CNc1cccc2c1CCN(C(=O)OC(C)(C)C)C2"
system_under_test = "CXCR7 (Homo sapiens, UniProt P25106)"
answer_label = "not fulfilled"

[[record]]
line_notation = "CCN1CCc2cccc(OC3(C(=O)N(CCN(C)C)Cc4ccccc4C(F)(F)F)CCC3)c2C1"
system_under_test = "CXCR7 (Homo sapiens, UniProt P25106)"
answer_label = "fulfilled"

[[record]]
line_notation = "COCCN1CCc2c(CCC(=O)N(CCN(C)C(=O)OC(C)(C)C)Cc3ccccc3C(F)(F)F)cccc2C1"
system_under_test = "CXCR7 (Homo sapiens, UniProt P25106)"
answer_label = "not fulfilled"

[[record]]
line_notation = "CN(C)CCN(Cc1ccccc1)C(=O)CNc1cccc2c1CN(C(=O)OC(C)(C)C)CC2"
system_under_test = "CXCR7 (Homo sapiens, UniProt P25106)"
answer_label = "fulfilled"

[[record]]
line_notation = "CCC(=O)N1CCc2c(cccc2NCC(=O)N(Cc2ccccc2)Cc2ccccn2)C1"
system_under_test = "CXCR7 (Homo sapiens, UniProt P25106)"
answer_label = "not fulfilled"


Ask: Regarding COCCN1CCc2c(/C=C/C(=O)N(CCC(C)(C)O)Cc3ccccc3C(F)(F)F)cccc2C1 , kindly confirm whether its EC50 is beneath 0.3 µM.
Reply: not fulfilled

Ask: Please check: EC50 for CC(C)(C)OC(=O)NCCN(Cc1ccccc1C(F)(F)F)C(=O)CNc1cccc2c1CCN(CC1CC1)C2 , strictly under 0.3 µM or not?
Reply: fulfilled

====

- system.under.test: CXCR7 (Homo sapiens, UniProt P25106)
- experiment.description: PathHunter CHO-K1 CXCR7 b-arrestin recruitment assay (CXCR7 agonistic activity)
- condition.label: PathHunter CHO-K1 CXCR7 b-arrestin cell line
- Description: The CXCl12 receptor and CXCR7 agonistic activities of the compounds of formula (I) are determined in accordance with the following experimental method. The assay is using the PathHunter™ CHO-K1 CXCR7 b-arrestin cell line from DiscoverX. The system is based on the Enzyme Fragment Complementation Technology. Two complementing fragments of the b-galactosidase enzyme are expressed within stably transfected cells. […]
Assignment: determine reported pEC50 for the given compounds.
Numbers only, as −log10 of the molar value.

[[record]]
compound = "CN(C)CCN(Cc1ncccc1Cl)C(=O)/C=C/c1cccc2c1CCN(C(=O)[C@H]1C[C@H]1F)C2 (racemic)"
experimental_value = 7.96


// for each compound below, give its pEC50
1. CC(C)(C)OC(=O)N1CCN(CCN(Cc2ccccc2C(F)(F)F)C(=O)CNc2cccc3c2CCN(CC2CC2)C3)CC1
2. CN1CCCC1CCN(CCCc1ccccc1)C(=O)CNc1cccc2c1CCN(CC1CC1)C2 (racemic)
3. N#CCCN(Cc1ccccc1)C(=O)CNc1cccc2c1CCN(CC1CC1)C2

Reply:
1. 7.47
2. 7.77
3. 6.94

====

For each of the compounds below, state its pEC50.
- system.under.test: CXCR7 (Homo sapiens, UniProt P25106)
- experiment.description: PathHunter CHO-K1 CXCR7 b-arrestin recruitment assay (CXCR7 agonistic activity)
- condition.label: PathHunter CHO-K1 CXCR7 b-arrestin cell line
Give bare numbers, as −log10 of the molar value.

For orientation, consider the following solved cases.
[[record]]
compound = "CCN1CCc2cccc(NCC(=O)N(CCN3CCOCC3)Cc3ccccc3C(F)(F)F)c2C1"
experimental_readout = "pEC50"
experimental_value = 6.96

[[record]]
compound = "Cc1cccnc1CN(CCN(C)C)C(=O)CNc1cccc2c1CCN(CC1CC1)C2"
experimental_readout = "pEC50"
experimental_value = 7.96

[[record]]
compound = "CN(C)CCN(Cc1ccccc1)C(=O)Cc1cccc2c1CCN(CC1CC1)C2"
experimental_readout = "pEC50"
experimental_value = 7.10


Provide reported pEC50 for each item, in the same order as listed.
1. COCCN1CCc2c(CCC(=O)N(Cc3ccccc3C(F)(F)F)CC(O)COC)cccc2C1 (stereo not shown)
2. CN(C)CCN(CCc1ccccc1)C(=O)Cc1cccc2c1CCN(CC1CC1)C2
3. CCCOC(=O)N1CCc2c(cccc2NCC(=O)N(CCNC)Cc2ncccc2C(F)(F)F)C1
4. CN1CCCC1CCN(Cc1ccccc1)C(=O)Cc1cccc2c1CCN(CC1CC1)C2 (racemic)
5. CN(C)CCN(Cc1ccccc1C(F)(F)F)C(=O)CNc1cccc2c1CCN(C1CCCC1)C2
6. CCOC(=O)CN1CCc2c(cccc2NCC(=O)N(CCN(C)C)Cc2ncccc2C(F)(F)F)C1
7. CC(c1ccccc1C(F)(F)F)N(CCN(C)C)C(=O)CNc1cccc2c1CCN(CC1CC1)C2 (racemic)

Reply:
1. 6.34
2. 6.84
3. 7.10
4. 7.33
5. 8.30
6. 7.04
7. 7.80

====

- system.under.test: CXCR7 (Homo sapiens, UniProt P25106)
- experiment.description: PathHunter CHO-K1 CXCR7 b-arrestin recruitment assay (CXCR7 agonistic activity)
- condition.label: PathHunter CHO-K1 CXCR7 b-arrestin cell line
experimental.readout: pEC50
One number for each entry, as −log10 of the molar value.

Here's what some known entries look like.
[[record]]
line_notation = "CN(C)CCN(Cc1ccccc1Cl)C(=O)CNc1cccc2c1C(C)(C)CN(CC1CC1)C2"
experimental_value = 9.05

[[record]]
line_notation = "C=CCN1CCc2cccc(NCC(=O)N(CCN(C)C)Cc3ccccc3OC(F)(F)F)c2C1"
experimental_value = 7.44

[[record]]
line_notation = "CCN1CCc2cccc(NCC(=O)N(CCN(C)C(=O)OC(C)(C)C)Cc3ccccc3C(F)(F)F)c2C1"
experimental_value = 6.42


Ask: Which measured pEC50 belongs to CN(C)CCN(Cc1ccccc1C(F)(F)F)C(=O)CNc1cccc2c1CN(CC1CCCCC1)CC2 , tested on CXCR7 (Homo sapiens, UniProt P25106)?
Reply: 8.30

====

- system.under.test: CXCR7 (Homo sapiens, UniProt P25106)
- Construct: host or cells: CHO-K1 (PathHunter CHO-K1 CXCR7 b-arrestin cell line, stably transfected)
- experiment.description: PathHunter CHO-K1 CXCR7 b-arrestin recruitment assay (CXCR7 agonistic activity)
- Format: cell-based
- condition.label: PathHunter CHO-K1 CXCR7 b-arrestin cell line
Give measured pEC50 for each item. Keep answers brief.
One number for each entry, as −log10 of the molar value.

// worked examples, pEC50 included
[[record]]
compound = "CCN1CCc2cccc(NCC(=O)N(CCN(C)C)Cc3ccccc3Cl)c2C1"
experimental_readout = "pEC50"
experimental_value = 7.51

[[record]]
compound = "CCC(=O)N1CCc2c(cccc2NCC(=O)N(CCN(C)C)Cc2cccc(C(F)(F)F)c2)C1"
experimental_readout = "pEC50"
experimental_value = 7.80

[[record]]
compound = "CC(Oc1cccc2c1CCN(CC1CC1)C2)C(=O)N(CCN(C)C)Cc1ccccc1C(F)(F)F (racemic)"
experimental_readout = "pEC50"
experimental_value = 7.49


Let's switch to this compound now.
Ask: For the compound shown here, CN(C)CCN(Cc1ccccc1Cl)C(=O)CCc1cccc2c1CCN(C(=O)OC(C)(C)C)C2 , give the reported pEC50.
Reply: 6.65

Data provenance is patent US9920010B2.
